Quick list: mass density per entry.
details: 293.15 K; 25000 kPa; Liquid

compound | mass density [kg/m3]
CCCCCCCCCCCCCC[P+](CCCCCC)(CCCCCC)CCCCCC.N#C[N-]C#N [tetradecyl(trihexyl)phosphonium dicyanamide] | 912.8
CCCCCCCCCCCCCC[P+](CCCCCC)(CCCCCC)CCCCCC.CS(=O)(=O)[O-] [trihexyltetradecylphosphonium methanesulfonate] | 944.6
CCCCCCCCCCCCCC[P+](CCCCCC)(CCCCCC)CCCCCC.[Cl-] [trihexyl(tetradecyl)phosphonium chloride] | 904
CCCCCCCCCCCCCC[P+](CCCCCC)(CCCCCC)CCCCCC.[Br-] [tetradecyltrihexylphosphonium bromide] | 969.3
CCCCCCCCCCCCCC[P+](CCCCCC)(CCCCCC)CCCCCC.O=S(=O)([N-]S(=O)(=O)C(F)(F)F)C(F)(F)F | 1084

====

conditions: 313.15 K; 20000 kPa; Liquid
Binary label based on mass density with cut-off 1000 kg/m3: below gives criterion met, not below gives criterion not met.

compound | class-assignment
CCCCCCCCCCCCCC[P+](CCCCCC)(CCCCCC)CCCCCC.[Br-] [tetradecyltrihexylphosphonium bromide] | criterion met
CCCCCCCCCCCCCC[P+](CCCCCC)(CCCCCC)CCCCCC.O=S(=O)([N-]S(=O)(=O)C(F)(F)F)C(F)(F)F | criterion not met
CCCCCCCCCCCCCC[P+](CCCCCC)(CCCCCC)CCCCCC.N#C[N-]C#N [tetradecyl(trihexyl)phosphonium dicyanamide] | criterion met
CCCCCCCCCCCCCC[P+](CCCCCC)(CCCCCC)CCCCCC.CS(=O)(=O)[O-] [trihexyltetradecylphosphonium methanesulfonate] | criterion met
CCCCCCCCCCCCCC[P+](CCCCCC)(CCCCCC)CCCCCC.[Cl-] [trihexyl(tetradecyl)phosphonium chloride] | criterion met

====

details: 313.15 K; 45000 kPa; Liquid
Quick list: mass density per entry.
attribute-measured: mass density (kg/m3)

compound | numeric-result
CCCCCCCCCCCCCC[P+](CCCCCC)(CCCCCC)CCCCCC.[Cl-] [trihexyl(tetradecyl)phosphonium chloride] | 902.1
CCCCCCCCCCCCCC[P+](CCCCCC)(CCCCCC)CCCCCC.[Br-] [tetradecyltrihexylphosphonium bromide] | 967.9
CCCCCCCCCCCCCC[P+](CCCCCC)(CCCCCC)CCCCCC.N#C[N-]C#N [tetradecyl(trihexyl)phosphonium dicyanamide] | 910.7
CCCCCCCCCCCCCC[P+](CCCCCC)(CCCCCC)CCCCCC.CS(=O)(=O)[O-] [trihexyltetradecylphosphonium methanesulfonate] | 943.3
CCCCCCCCCCCCCC[P+](CCCCCC)(CCCCCC)CCCCCC.O=S(=O)([N-]S(=O)(=O)C(F)(F)F)C(F)(F)F | 1081.3

====

settings: 333.15 K; 15000 kPa; Liquid
± gives the expanded uncertainty stated by the source.

compound | mass density
CCCCCCCCCCCCCC[P+](CCCCCC)(CCCCCC)CCCCCC.[Br-] [tetradecyltrihexylphosphonium bromide] | 941 ± 0.9 kg/m3
CCCCCCCCCCCCCC[P+](CCCCCC)(CCCCCC)CCCCCC.O=S(=O)([N-]S(=O)(=O)C(F)(F)F)C(F)(F)F | 1051.2 ± 0.9 kg/m3
CCCCCCCCCCCCCC[P+](CCCCCC)(CCCCCC)CCCCCC.CS(=O)(=O)[O-] [trihexyltetradecylphosphonium methanesulfonate] | 916.7 ± 1.1 kg/m3
CCCCCCCCCCCCCC[P+](CCCCCC)(CCCCCC)CCCCCC.N#C[N-]C#N [tetradecyl(trihexyl)phosphonium dicyanamide] | 886.6 ± 1.3 kg/m3
CCCCCCCCCCCCCC[P+](CCCCCC)(CCCCCC)CCCCCC.[Cl-] [trihexyl(tetradecyl)phosphonium chloride] | 877.3 ± 1.4 kg/m3
